Target: T1, β-catenin (UniProt P35222 134-665, limits assumed, biotinylated in the SPR and plate assays)
T1 sequence (looked up): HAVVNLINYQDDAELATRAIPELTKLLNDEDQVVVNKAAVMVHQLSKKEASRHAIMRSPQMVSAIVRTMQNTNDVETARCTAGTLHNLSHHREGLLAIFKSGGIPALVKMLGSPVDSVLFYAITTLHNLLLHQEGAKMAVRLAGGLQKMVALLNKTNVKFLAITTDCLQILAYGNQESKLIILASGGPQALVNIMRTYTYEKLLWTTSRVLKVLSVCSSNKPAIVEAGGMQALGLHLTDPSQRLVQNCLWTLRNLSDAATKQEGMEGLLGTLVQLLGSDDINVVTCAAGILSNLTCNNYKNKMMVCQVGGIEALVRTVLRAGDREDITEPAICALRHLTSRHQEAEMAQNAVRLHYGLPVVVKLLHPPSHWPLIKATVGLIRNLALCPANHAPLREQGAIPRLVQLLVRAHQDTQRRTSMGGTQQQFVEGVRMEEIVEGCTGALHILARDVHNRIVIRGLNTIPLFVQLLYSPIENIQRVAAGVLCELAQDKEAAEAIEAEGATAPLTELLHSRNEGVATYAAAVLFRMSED
Experiment: cell-based or functional assay
Bridges are numbered along the chain shown (N, C = ends). Where no end group is shown, it is not given here. [ ]: non-standard residue; d: D form. The star is where a group is joined. Chg = N[C@H](C(=O)O)C1CCCCC1; Lauroyl = CCCCCCCCCCCC(=O)*; NMeA = CN[C@@H](C)C(=O)O; Ppa = not defined here
quantity: Wnt Reporter EC50

For orientation, consider the following solved cases.
{"columns": ["binder", "Wnt Reporter EC50"],
 "data": [
  ["MWGLISFWG (HELM PEPTIDE1{[ac].M.W.[O=C([C@@H](N[*:1])C1CCCCC1)[*:2]].L.I.S.F.W.G}$$$$V2.0; SMILES CC[C@H](C)[C@H](NC(=O)[C@H](CC(C)C)NC(=O)[C@@H](NC(=O)[C@H](Cc1c[nH]c2ccccc12)NC(=O)[C@H](CCSC)NC(C)=O)C1CCCCC1)C(=O)N[C@@H](CO)C(=O)N[C@@H](Cc1ccccc1)C(=O)N[C@@H](Cc1c[nH]c2ccccc12)C(=O)NCC(=O)O, also called Hit 1) [SEQ ID NO: 217]", "≤ 7.5 µM"],
  ["KWFLICFWD (HELM PEPTIDE1{K.W.F.L.I.C.F.W.D}$PEPTIDE1,PEPTIDE1,1:R3-9:R3$$$V2.0; SMILES CC[C@H](C)[C@@H]1NC(=O)[C@H](CC(C)C)NC(=O)[C@H](Cc2ccccc2)NC(=O)[C@H](Cc2c[nH]c3ccccc23)NC(=O)[C@@H](N)CCCCNC(=O)C[C@@H](C(=O)O)NC(=O)[C@H](Cc2c[nH]c3ccccc23)NC(=O)[C@H](Cc2ccccc2)NC(=O)[C@H](CS)NC1=O) [SEQ ID NO: 172]", "≤ 7.5 µM"],
  ["MSRMWWLISFW-NH2 [SEQ ID NO: 80]", "> 30 µM"],
  ["HSRMWFLISFW-NH2 [SEQ ID NO: 89]", "> 30 µM"],
  ["KSRWWFLISFW-NH2 [SEQ ID NO: 95]", "> 30 µM"]
]}

Looking up H-MSRIWFLISFWG-OH [SEQ ID NO: 55] , I see its Wnt Reporter EC50 listed as ≤ 7.5 µM

Looking up MWFLICFWD (HELM PEPTIDE1{[O=C(CCCN[*:1])[*:2]].M.W.F.L.I.C.F.W.D}$PEPTIDE1,PEPTIDE1,1:R1-10:R3$$$V2.0; SMILES CC[C@H](C)[C@@H]1NC(=O)[C@H](CC(C)C)NC(=O)[C@H](Cc2ccccc2)NC(=O)[C@H](Cc2c[nH]c3ccccc23)NC(=O)[C@H](CCSC)NC(=O)CCCNC(=O)C[C@@H](C(=O)O)NC(=O)[C@H](Cc2c[nH]c3ccccc23)NC(=O)[C@H](Cc2ccccc2)NC(=O)[C@H](CS)NC1=O) [SEQ ID NO: 147] , I see its Wnt Reporter EC50 listed as > 30 µM

Looking up KWFLISFWE (HELM PEPTIDE1{[ac].K.W.F.L.I.S.F.W.E}$PEPTIDE1,PEPTIDE1,2:R3-10:R3$$$V2.0; SMILES CC[C@H](C)[C@@H]1NC(=O)[C@H](CC(C)C)NC(=O)[C@H](Cc2ccccc2)NC(=O)[C@H](Cc2c[nH]c3ccccc23)NC(=O)[C@@H](NC(C)=O)CCCCNC(=O)CC[C@@H](C(=O)O)NC(=O)[C@H](Cc2c[nH]c3ccccc23)NC(=O)[C@H](Cc2ccccc2)NC(=O)[C@H](CO)NC1=O) [SEQ ID NO: 199] , I see its Wnt Reporter EC50 listed as ≤ 7.5 µM

Looking up Lauroyl-W[NMeA]QKILNDH[Chg]QAVW-NH2 (lactam 4-8) [SEQ ID NO: 459] , I see its Wnt Reporter EC50 listed as ≤ 7.5 µM

Looking up Ppa-MWILISFWG-OH (reading uncertain; also: printed as Ppa-MWILISFWG-COOH, also called Hit 2) [SEQ ID NO: 224] , I see its Wnt Reporter EC50 listed as ≤ 7.5 µM

Looking up KWFLISAWE (HELM PEPTIDE1{K.W.F.L.I.S.A.W.E}$PEPTIDE1,PEPTIDE1,1:R3-9:R3$$$V2.0; SMILES CC[C@H](C)[C@@H]1NC(=O)[C@H](CC(C)C)NC(=O)[C@H](Cc2ccccc2)NC(=O)[C@H](Cc2c[nH]c3ccccc23)NC(=O)[C@@H](N)CCCCNC(=O)CC[C@@H](C(=O)O)NC(=O)[C@H](Cc2c[nH]c3ccccc23)NC(=O)[C@H](C)NC(=O)[C@H](CO)NC1=O) [SEQ ID NO: 183] , I see its Wnt Reporter EC50 listed as ≤ 7.5 µM

Looking up MSRTWFLISFW-NH2 [SEQ ID NO: 76] , I see its Wnt Reporter EC50 listed as > 30 µM
